assay: HepG2 cell cytotoxicity, dose response, cytotoxicity control for non-replicating M. tuberculosis project (AID 489018); conditions: series mostly up to 20 µM;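 note: HepG2 human liver cells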
In all, about 2,300 compounds went through this assay and about 350 (15%) were called active. These entries were drawn from the full list. Results with a measured potency or affinity are listed apart.

Compound	outcome
Oc1ccccc1-c1nnc(COc2ccccc2)o1	inactive
O=C(Nc1nnc(-c2ccc(Cl)cc2)o1)c1nc2ccccc2s1	inactive
CC(=O)Oc1c(-c2ccc(Br)o2)oc2ccccc2c1=O	inactive
Cc1cccc(NCCC(=O)c2ccc([N+](=O)[O-])cc2)c1C	inactive
Oc1oc(-c2ccco2)nc1C=Nc1cccc(Cl)c1	inactive
O=C(N/N=C/c1ccc[nH]1)c1ccncc1	inactive
CC(C)c1nnc(NC(=O)c2c(O)c3cccc4c3n(c2=O)CCC4)s1	inactive
CCCCCC/C(=N/O)c1ccccn1	inactive
O=C(Nc1ccc(Cl)cc1Cl)c1cccc(N2C(=O)C=CC2=O)c1	inactive
Cc1cc(C)n2[nH]c(=O)c(N=Nc3cccc(Cl)c3)c2n1	inactive
CCCCN1CCC(O)(c2ccccc2)C(C(=O)c2ccccc2)C1 (configuration not stated)	inactive
O=C(OCc1cccc(F)c1)c1ccc2c(=O)n3c(nc2c1)CCC3	inactive

====

assay: HepG2 cell cytotoxicity, dose response, cytotoxicity control for non-replicating M. tuberculosis project (AID 489018); conditions: series mostly up to 20 µM;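 note: HepG2 human liver cells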
Screen size: about 2,300 compounds; about 350 (15%) were called active. Not all results are given here. Results with a measured potency or affinity are listed apart.

Compound	outcome
O=C(N/N=C\c1ccccc1OCc1ccccc1)c1ccco1	inactive
Cc1ccc(NC(=O)COC(=O)C2=COCCO2)c([N+](=O)[O-])c1	inactive
C/C(=N\NC(=O)c1cccs1)c1ccc2c(c1)OCO2	inactive
COc1ccc(C(=O)Nc2nnc(-c3ccccc3)o2)cc1OC	inactive
COc1cccc(C(=O)OCC(=O)Nc2nnc(-c3ccccc3)o2)c1	inactive
O=C(Oc1cccc2cccnc12)c1cccc(-n2cnnn2)c1	inactive
Cc1cc(C)n(CC(=O)N/N=C/c2ccc([N+](=O)[O-])s2)n1	inactive
COc1cccc(C(=O)Nc2nnc(-c3ccc(F)cc3)o2)c1	inactive
O=C(N/N=C/c1ccc[nH]1)c1ccc2c(c1)OCO2	inactive
Cc1ccccc1-n1sc2cc(F)ccc2c1=O	inactive
Cc1ccc(CCC(=O)Nc2ccc(C)c(C)c2)o1	inactive
Oc1ccc(F)c2cccnc12	inactive
O=C(N/N=C/c1ccc(Br)s1)c1ccccc1[N+](=O)[O-]	inactive
CCOc1cc(-c2sc(Nc3cc(C)ccc3OC)n[n+]2-c2ccccc2)ccc1OC	inactive
FC(F)(F)c1nnc2ccc(Cl)nn12	inactive
O=Cc1ccnc(-c2ccc(OC(=O)c3ccco3)cc2)n1	inactive
Cc1cccc(C(=O)Nc2nnc(-c3cccnc3)o2)c1	inactive
Cc1cc(OCCCCn2ccnc2)cc(C)c1Cl	inactive
COC(=O)COc1ccc2cc(-c3ccc(OC)cc3)c(=O)oc2c1	inactive
O=C(OCc1nnc(-c2ccccc2)o1)c1ccc(Br)o1	inactive
Cc1ccc(C(=O)Nc2nnc(-c3ccncc3)o2)cc1	inactive
O=C1c2cc([N+](=O)[O-])cc3cc([N+](=O)[O-])cc(c23)C(=O)N1c1ccccn1	inactive
CNC(=O)COC(=O)c1ccc(-c2nc3ccccc3s2)s1	inactive
CCOC(=O)CN1NC2(CCCC(C)C2)NC1=S (centres undefined)	inactive
CCOC(=O)N1CCC(N2CCCC(C(=O)c3ccc4cc(OC)ccc4c3)C2)CC1 (centres undefined)	inactive
Cc1ccc(C(=O)NNC(=S)NC(=O)c2ccc(Cl)cc2)cc1	inactive
Cc1noc2ncnc(Sc3ccccc3Cl)c12	inactive
CC(/C=C/c1ccccc1)=N\NC(=O)c1ccc2c(c1)OCCO2	inactive
Cc1ccc2nc(C)c3c(c2c1)COC3	inactive
O=C(CCN1CCOCC1)c1ccc(Cl)cc1	inactive
c1ccc2sc(SCc3ccc(-c4nnco4)cc3)nc2c1	inactive
Cc1cccc(OC(=O)c2sc3ncn(C)c(=O)c3c2C)c1	inactive
O=C(Nc1nnc(-c2ccc(F)cc2)o1)c1cc(Cl)sc1Cl	inactive
COc1cc(NC(=O)N2CCOCC2)cc(OC)c1	inactive
COC(=O)c1cc(-c2ccc(OC)cc2)on1	inactive
COc1ccc(/C=C/c2nc3ccccc3c(=O)o2)cc1	inactive
O=C(Oc1cccc2cccnc12)c1ccc2c(c1)OCCO2	inactive
CCOc1ccc(-c2cc(CCCC(=O)NCCC(C)C)no2)cc1	inactive
O=C(Oc1cccc2cccnc12)c1cccc([N+](=O)[O-])c1	inactive
COC(=O)c1ccc(N2CCN(CCNC(=O)Nc3ccc(OC)cc3)CC2)cc1	inactive
Cc1cc(NC(=O)C2CCCCC2)n(-c2nc3ccccc3[nH]2)n1	inactive
Cc1c(Cl)cccc1-c1ccc(CNCc2ccccn2)o1	inactive
OC(CNCCc1ccc(C(F)(F)F)cc1)COc1cccc2ccccc12 (centres undefined)	inactive
CCCCOC(=O)c1ccc(NC(=O)c2nn(C)cc2Br)cc1	inactive
COC(=O)c1ccccc1Sc1ncnc2onc(C)c12	inactive
C=CCOc1ccc(CNCCO)cc1OCC	inactive
O=S(=O)(c1ccc(OCC2CO2)cc1)c1ccc(OCC2CO2)cc1 (centres undefined)	inactive
Cc1occc1C(=O)N/N=C/C(Br)=C\c1ccccc1	inactive
Cc1ccc(N/N=C2\CS(=O)(=O)N(C)c3ccsc32)cc1	inactive

====

test: HepG2 cell cytotoxicity, dose response, cytotoxicity control for non-replicating M. tuberculosis project (AID 489018); conditions: series mostly up to 20 µM;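 note: HepG2 human liver cells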
Screen size: about 2,300 compounds; about 350 (15%) were called active. A selection follows. Results with a measured potency or affinity are listed apart.

Chem Smiles	outcome
CC(C)Cc1cc(C(=O)Nc2ccc(F)cc2F)no1	inactive
CC(C)(C)C(=O)/C=C/Nc1ccccc1O	inactive
Cc1cc(C(=O)N/N=C/c2cccc(Cl)c2Cl)no1	inactive
O=C(CCc1c[nH]c2ccccc12)Nc1ncccc1O	inactive
Cn1c(-c2cccc([N+](=O)[O-])c2)cnc1NCc1cccc(F)c1	inactive
CCOC(=O)CNCCC(=O)c1ccc(Br)cc1	inactive

====

assay: HepG2 cell cytotoxicity, dose response, cytotoxicity control for non-replicating M. tuberculosis project (AID 489018); details: series mostly up to 20 µM;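 note: HepG2 human liver cells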
Out of some 2,300 compounds screened, about 350 (15%) were called active. Only a sample is shown. Potency and affinity values are given separately.

Compound	outcome
Cc1cccc(-c2nnc3sc(-c4ccccc4C)nn23)c1	inactive
Cc1cc(Br)ccc1OCCCCN1CCC(C)CC1	inactive
CCOC(=O)COc1cc(N)c(Cl)cc1Cl	inactive
CCOC(=O)COn1c(-c2cccc(Cl)c2)nc2ccc([N+](=O)[O-])cc21	inactive
Cc1cc(N2CCN(c3ccccc3)CC2)nc(-n2nc(C)cc2C)n1	inactive
Cc1ccccc1OCCCCc1c(C)n[nH]c1C	inactive
CC(C)(C)c1ccccc1OCCOCCN1CCCCCC1	inactive
Cc1cc(Br)ccc1OCC(=O)NNC(=O)C(=O)Nc1ccccc1	inactive
CC(C)(C)NCC1(CO)SC(N)=NC1=O (configuration not stated)	inactive
O=C(Nc1nc2ccccc2[nH]1)c1ccc(F)cc1	inactive
C#CCSc1nnc(-c2ccc(C)cc2)o1	inactive
O=C(COC(=O)c1ccccc1)NC12CC3CC(CC(C3)C1)C2	inactive
CCOC(=O)CCNC(=O)c1ccc2nc(C3CCCCC3)oc2c1	inactive
CCCCCCOC(=O)C(C#N)c1nc2ccccc2nc1N1CCN(CC)CC1 (configuration not stated)	inactive
O=C(COc1ccc(-c2ccccc2)cc1)Nc1cccnc1	inactive
O=C(CCCOc1ccccc1)OCn1nnc2ccccc2c1=O	inactive
CC/C(=C\C=C\[C@@H]1C=C[C@@H]2CCC[C@H]2[C@@H]1C(=O)c1ccc[nH]1)[C@@H]1O[C@@H]([C@@H](C)C(=O)O)CC[C@@H]1C	inactive
O=C(N=Nc1c(O)[nH]c2ccc(Br)cc12)c1ccccc1-n1cccc1	inactive
O=C(NCc1cccs1)c1cc(-c2ccc(O)cc2)on1	inactive
CC1=NN(C(=O)c2ccc(Cn3nc(C)c(Br)c3C)cc2)C(O)(C(F)(F)F)C1 (configuration not stated)	inactive
O=C(Nc1nc2ccccc2[nH]1)c1cccc(Cl)c1	inactive
COc1ccccc1OCCNC(=O)c1cc([N+](=O)[O-])cc([N+](=O)[O-])c1	inactive
CC(C)(C)c1ccc(-c2nc(C#N)c(NCCCn3ccnc3)o2)cc1	inactive
O=C(OCc1c(Cl)cccc1Cl)c1ccccn1	inactive
CCN(CC)c1ccc2cc(C(=O)NCc3ccc(F)cc3)c(=N)oc2c1	inactive
NC(N)=Nc1nc(-c2ccccc2)c2ccccc2n1	inactive
Cc1ccnc(NC(=O)c2cc3ccccc3o2)c1	inactive
O=[N+]([O-])c1ccc(-c2nc3ccc([N+](=O)[O-])cc3[nH]2)cc1	inactive
Nc1ccc2nc3c(c(Cl)c2c1)CCCC3	inactive
O=C1N/C(=N\c2ccccn2)SC1Cc1ccc(Cl)cc1 (configuration not stated)	inactive
COc1cccc(CN2CCC(N(CCc3ccccc3)Cc3ccccc3)CC2)c1OC	inactive
CCOC(=O)COc1ccc2c(=O)c(-c3ccccc3)coc2c1	inactive
Cc1cc(C)n(C(=O)c2ccc([N+](=O)[O-])cc2[N+](=O)[O-])n1	inactive
O=C(Nc1ncc([N+](=O)[O-])s1)c1cccs1	inactive
CCOc1cc(-c2nnc(NC(=O)c3ccco3)o2)cc(OCC)c1OCC	inactive
O=C(OCC#CCSc1nc2ccccc2o1)c1ccco1	inactive
COc1ccc(-c2noc(-c3cc4ccccc4oc3=O)n2)cc1	inactive
O=C(c1ccccc1[N+](=O)[O-])N1N=C(c2ccccc2)CC1(O)C(F)(F)F (configuration not stated)	inactive
O=c1c2cc(Cl)ccc2nc(-c2ccc([N+](=O)[O-])cc2)n1O	inactive
O=c1[nH]c(O)c(/C=C2/C=CC(c3cc(Cl)ccc3Cl)=N2)c(=O)[nH]1	inactive
COC(=O)c1ccc(Sc2nnnn2-c2ccccc2)c([N+](=O)[O-])c1	inactive
CCCn1c(NC(=O)c2ccc([N+](=O)[O-])o2)nc2ccccc21	inactive
COc1ccc(/C=N/Nc2cc(C)nc(-n3nc(C)cc3C)n2)c(OC)c1	inactive
CCCCCOc1ccc(CSC2=NCCN2)cc1[N+](=O)[O-]	inactive
Cn1cccc1/C=N\NC(=O)C1COc2ccccc2O1 (configuration not stated)	inactive
Cn1c(O)c(C(=Nc2ccccc2)SCc2ccccc2Cl)c(=O)n(C)c1=O	inactive
Cc1cc(C)c2nc(/N=C(\N)NC(=O)Nc3ccccc3)nc(C)c2c1	inactive
